- tested.target: Pan-species-specific antigen Plasmodium Lactate DeHydrogenase (Pan-PLDH) protein
- measurement.protocol: indirect ELISA at four coating concentrations, KD calculated from half-maximal OD
pKd: −log10 of the molar value.
Each record here notes measured pKd.
reported.endpoint: pKd

[
  {
    "binder": "Mutation 1-24 (antibody, mouse IgG2b, kappa, V domains shown) VH: QVQLQQPGAELVRPGASVKLSCKASGSSFTNYWMNWVKQRPGQGLEWIGMIHPSDSETRINQKFKDKATLTVDKSSSTAYMQLSSLTAEDSAVYYCAKSGDFYTSYFDYWGQGTTLTVSS VL: DIQLTQSPASLSASVGETVTITCRGSGNLHNYLAWYQQKQGKSPQLLVYNAKTLADGVPSRFSGSGSGTQYSLKINSLQPEDFGSYYCQTFWSTYTFGGGTKLEIKR",
    "reported.endpoint": "pKd",
    "reported": 9.40
  },
  {
    "binder": "Mutation 1-3 (antibody, mouse IgG2b, kappa, V domains shown) VH: QVQLQQPGAELVRPGASVKLSCKASGTSFTNYWMNWVKQRPGQGLEWIGMIHPSDSETRINQKFKDKATLTVDKSSSTAYMQLSSLTAEDSAVYYCAKSGEFYTSYFDYWGQGTTLTVSS VL: DIQLTQSPASLSASVGETVTITCRGTGNVHNYLAWYQQKQGKSPQLLVYNAKTIADGVPSRFSGSGSGTQYSLKINSLQPEDFGSYYCQYFWSTYTFGGGTKLEIKR",
    "reported.endpoint": "pKd",
    "reported": 10.01
  },
  {
    "binder": "Mutation 1-44 (antibody, mouse IgG2b, kappa, V domains shown) VH: QVQLQQPGAELVRPGASVKLSCKASGSSFTNYWMNWVKQRPGQGLEWIGMIHPSDSETRVNQKFKDKATLTVDKSSSTAYMQLSSLTAEDSAVYYCARSGEFYTSYFDYWGQGTTLTVSS VL: DIQLTQSPASLSASVGETVTITCRGTGNVHNYLAWYQQKQGKSPQLLVYNAKTLADGVPSRFSGSGSGTQYSLKINSLQPEDFGSYYCQYFWSTYTFGGGTKLEIKR",
    "reported.endpoint": "pKd",
    "reported": 9.50
  },
  {
    "binder": "Mutation 1-52 (antibody, mouse IgG2b, kappa, V domains shown) VH: QVQLQQPGAELVRPGASVKLSCKASGYSFTNYWMNWVKQRPGQGLEWIGMIHPSESETRLNQKFKDKATLTVDKSSSTAYMQLSSLTAEDSAVYYCAKSGEFYTTYFDYWGQGTTLTVSS VL: DIQLTQSPASLSASVGETVTITCRGSGNIHNYLAWYQQKQGKSPQLLVYNARTVADGVPSRFSGSGSGTQYSLKINSLQPEDFGSYYCQSFWSTYTFGGGTKLEIKR",
    "reported.endpoint": "pKd",
    "reported": 9.18
  },
  {
    "binder": "Mutation 1-12 (antibody, mouse IgG2b, kappa, V domains shown) VH: QVQLQQPGAELVRPGASVKLSCKASGYSFTNYWMNWVKQRPGQGLEWIGMIHPSDSETRINQKFKDKATLTVDKSSSTAYMQLSSLTAEDSAVYYCAKSGDFYTSYFDYWGQGTTLTVSS VL: DIQLTQSPASLSASVGETVTITCRGSGNLHNYLAWYQQKQGKSPQLLVYNAKTVADGVPSRFSGSGSGTQYSLKINSLQPEDFGSYYCQYFWSTYTFGGGTKLEIKR",
    "reported.endpoint": "pKd",
    "reported": 9.93
  }
]

Values compiled from patent US20210395394A1.
